All figures here come from patent US20190330224A1.

- System: Candida tropicalis
- Procedure Details: In vitro antifungal assay (broth microdilution, Micromyx), C. tropicalis
- Type: cell-based
- Condition Label: ATCC90874, strain 0636 ATCC 90874, 35° C., approximately 24-48 hr
- Experimental: Compounds of the present invention were also assayed in an in vitro antifungal assay against Candida glabrata, Candida tropicalis, and Aspergillus fumigatus, performed by Micromyx, a representative procedure of which follows. The test organisms were reference strains acquired from the American Type Culture Collection (ATCC). Upon receipt, the isolates were streaked onto Sabouraud Dextrose Agar (SDA). […]
Experimental Readout: MIC

Reference set (2 entries):
{"Compound": "COc1ccc(F)cc1[C@H](Cn1c(=O)n([C@@H]2CCNC2=O)c(=O)c2c(C)c(-n3nccn3)sc21)OC1CCOCC1", "Subject Of Test": "Candida tropicalis", "MIC": "0.25 to 1 µg/mL"}
{"Compound": "COc1ccc(F)cc1[C@H](Cn1c(=O)n([C@H]2CCCN(C)C2=O)c(=O)c2c(C)c(-n3nccn3)sc21)OC1CCOCC1", "Subject Of Test": "Candida tropicalis", "MIC": "0.25 to 1 µg/mL"}

Let us move to another entry and its MIC.
Note to self: MIC recorded for COc1ccc(F)cc1[C@H](Cn1c(=O)n(C2CCN(C(C)C)C2=O)c(=O)c2c(C)c(-n3nccn3)sc21)OC1CCOCC1 (stereo partly drawn) was 0.25 to 1 µg/mL

---

What MIC was measured for each of the following?
- Tested on: C. parapsilosis ATCC 22019
- Procedure Details: Anti-Fungal Activity Assay (broth microtiter MIC), C. parapsilosis
- Type: cell-based, Candida parapsilosis
- Condition Label: Lodderomyces parapsilosis, ATCC22019, 48 h, 3 replicates; MIC recorded at 48 h; read-out: MIC C. parapsilosis ATCC 22019

{"Structure String": "COc1ccccc1C(=O)Cn1c(=O)n([C@H]2CCN(C)C2=O)c(=O)c2c(C)c(-n3nccn3)sc21", "MIC": "2.1 to 4 µg/mL"}
{"Structure String": "COc1ccc(F)cc1[C@H](Cn1c(=O)n([C@@H]2CCCNC2=O)c(=O)c2c(C)c(-n3nccn3)sc21)O[C@H]1CC[C@@H](O)CC1", "MIC": "1.1 to 2 µg/mL"}
{"Structure String": "COc1ccc(F)cc1[C@H](COc1nc2sc(-n3nccn3)c(C)c2c(=O)n1[C@H]1CNC(=O)C1)OCCO", "MIC": "2.1 to 4 µg/mL"}
{"Structure String": "COc1ccc(F)cc1[C@H](Cn1c(=O)n([C@@H]2CCNC2=O)c(=O)c2c(C)c(-n3nccn3)sc21)O[C@H]1C[C@H](O)C1", "MIC": "2.1 to 4 µg/mL"}
{"Structure String": "COc1ccc(F)cc1[C@H](Cn1c(=O)n([C@H]2CCN(C)C2=O)c(=O)c2c(C)c(-n3cccn3)sc21)O[C@H]1CC[C@@H](O)CC1", "MIC": "2.1 to 4 µg/mL"}

Let us move to another entry and its MIC.
Tested on C. parapsilosis ATCC 22019, the item `COc1ccc(F)cc1[C@H](Cn1c(=O)n([C@H]2CCCNC2=O)c(=O)c2c(C)c(-n3nccn3)sc21)OCCO` showed MIC equal to 2.1 to 4 µg/mL

---

- Tested on: C. parapsilosis ATCC 22019
- Procedure Details: Anti-Fungal Activity Assay (broth microtiter MIC), C. parapsilosis
- Type: cell-based, Candida parapsilosis
- Condition Label: Lodderomyces parapsilosis, ATCC22019, 48 h, 3 replicates; MIC recorded at 48 h; read-out: MIC C. parapsilosis ATCC 22019
What MIC was measured for each of the following?

Reference set (2 entries):
{"Compound": "COc1ccc(F)cc1[C@H](Cn1c(=O)n([C@@H]2CCN(C(=O)C(C)C)C2)c(=O)c2c(C)c(-n3nccn3)sc21)OCCO", "Experimental Readout": "MIC", "Result": "2.1 to 4 µg/mL"}
{"Compound": "COCCO[C@@H](Cn1c(=O)n([C@H]2CCN(C(=O)C(C)C)C2)c(=O)c2c(C)c(-n3nccn3)sc21)c1cc(F)ccc1OC", "Experimental Readout": "MIC", "Result": "2.1 to 4 µg/mL"}

Please state, for each entry, its recorded MIC.
1. COc1ccc(F)cc1[C@H](Cn1c(=O)n([C@@H]2CCCNC2=O)c(=O)c2c(C)c(-c3ncco3)sc21)OCCO
2. COCCO[C@@H](Cn1c(=O)n(CCN2CCCC2=O)c(=O)c2c(C)c(-n3nccn3)sc21)c1cc(F)ccc1OC

Out:
1. 2.1 to 4 µg/mL
2. 2.1 to 4 µg/mL

Please state, for each entry, its recorded MIC.
1. COCCO[C@@H](Cn1c(=O)n([C@H]2CNC(=O)C2)c(=O)c2c(C)c(-n3nccn3)sc21)c1cc(F)ccc1OC
2. COc1ccc(F)cc1[C@H](Cn1c(=O)n([C@H]2CCNC2=O)c(=O)c2c(C)c(-n3nccn3)sc21)OC1CCOCC1
3. COCCO[C@@H](Cn1c(=O)n([C@]2(C)CNC(=O)C2)c(=O)c2c(C)c(-n3nccn3)sc21)c1cc(F)ccc1OC
4. COCCO[C@@H](Cn1c(=O)n([C@H]2CCN(C)C2=O)c(=O)c2c(C)c(-n3cccn3)sc21)c1cc(F)ccc1OC

Out:
1: 2.1 to 4 µg/mL; 2: 2.1 to 4 µg/mL; 3: 2.1 to 4 µg/mL; 4: 2.1 to 4 µg/mL

Please state, for each entry, its recorded MIC.
1. COc1ccc(F)cc1[C@H](Cn1c(=O)n(C2CCN(C(C)C)C2=O)c(=O)c2c(C)c(-n3nccn3)sc21)OC1CCOCC1 (stereo in doubt) [Compound I-138]
2. COc1ccccc1[C@H](Cn1c(=O)n(C2CCN(C)C2=O)c(=O)c2c(C)c(-c3ncco3)sc21)OCCO (stereo partly shown)

Out:
1. 2.1 to 4 µg/mL
2. 2.1 to 4 µg/mL
